system: Glycine max (GLXMA); assay: B2 Post-Emergence Efficacy - Test 2; assay type: in vivo; conditions: 500 g/Ha, 15 days after application, 0-100 scale
test-readout: Herbicidal activity GLXMA

smiles-entry	measurement
Cc1nn(C)c(=O)c(-c2c(F)ccc(Cl)c2CCc2ccccc2C(F)(F)F)c1O	90
Cc1nn(C)c(=O)c(-c2c(F)ccc(Cl)c2CCc2ccc(Cl)cc2)c1OC(=O)C(C)C	100
Cc1nn(C)c(=O)c(-c2c(F)ccc(Cl)c2CCc2ccc(F)cc2)c1OC(=O)C(C)C	90
Cc1nn(C)c(=O)c(-c2c(F)ccc(Cl)c2CCc2ccc(F)cc2)c1O	100
Cc1nn(C)c(=O)c(-c2c(F)ccc(Cl)c2CCc2ccc(C(F)(F)F)nc2)c1O	100
Cc1nn(C)c(=O)c(-c2c(F)ccc(Cl)c2CCc2ccc(C#N)cc2)c1O	100

====

system: Eleisine indica (ELEIN); assay: B2 Post-Emergence Efficacy - Test 2; assay type: in vivo; details: 500 g/Ha, 15 days after application, 0=no damage, 100=total kill
Parameter: Herbicidal activity on a 0-100 scale, ELEIN. Scope: all listed entries.
test-readout: Herbicidal activity on a 0-100 scale, ELEIN

smiles-entry	measurement
Cc1nn(C)c(=O)c(-c2c(F)ccc(Cl)c2CCc2ccccc2C(F)(F)F)c1O	80
Cc1nn(C)c(=O)c(-c2c(F)ccc(Cl)c2CCc2ccc(F)cc2)c1O	80
Cc1nn(C)c(=O)c(-c2c(F)ccc(Cl)c2CCc2ccc(F)cc2)c1OC(=O)C(C)C	80
Cc1nn(C)c(=O)c(-c2c(F)ccc(Cl)c2CCc2ccc(C(F)(F)F)nc2)c1O	90
Cc1nn(C)c(=O)c(-c2c(F)ccc(Cl)c2CCc2ccc(Cl)cc2)c1OC(=O)C(C)C	90
Cc1nn(C)c(=O)c(-c2c(F)ccc(Cl)c2CCc2ccc(C#N)cc2)c1O	80

====

Tested on: Amaranthus retroflexus (AMARE)
Experiment: B2 Post-Emergence Efficacy - Test 2
Type: in vivo
Conditions: 15 g/Ha, 15 days after application, 0-100 scale
Procedure: Seeds of a variety of test species (see Table B1) were sown in standard soil in pots. […] After application, the test plants were grown in a glasshouse under controlled conditions (as above) and watered twice daily. Herbicidal activity was evaluated 15 days after application on a 0-100 scale. […]

smiles-entry	Herbicidal activity AMARE
Cc1nn(C)c(=O)c(-c2c(F)ccc(Cl)c2CCc2ccc(C#N)cc2)c1O	80
Cc1nn(C)c(=O)c(-c2c(F)ccc(Cl)c2CCc2ccc(Cl)cc2)c1OC(=O)C(C)C	80
Cc1nn(C)c(=O)c(-c2c(F)ccc(Cl)c2CCc2ccccc2C(F)(F)F)c1O	90
Cc1nn(C)c(=O)c(-c2c(F)ccc(Cl)c2CCc2ccc(F)cc2)c1OC(=O)C(C)C	80
Cc1nn(C)c(=O)c(-c2c(F)ccc(Cl)c2CCc2ccc(F)cc2)c1O	60

====

test system: Abutilon theophrasti (ABUTH); test: B2 Post-Emergence Efficacy - Test 2; type: in vivo; details: 30 g/Ha, 15 days after application, 0-100 scale
test-readout: Herbicidal activity ABUTH

smiles-entry	experimental-system	test-readout	measurement
Cc1nn(C)c(=O)c(-c2c(F)ccc(Cl)c2CCc2ccc(Cl)cc2)c1OC(=O)C(C)C	Abutilon theophrasti (ABUTH)	Herbicidal activity ABUTH	90
Cc1nn(C)c(=O)c(-c2c(F)ccc(Cl)c2CCc2ccc(C(F)(F)F)nc2)c1O	Abutilon theophrasti (ABUTH)	Herbicidal activity ABUTH	90
Cc1nn(C)c(=O)c(-c2c(F)ccc(Cl)c2CCc2ccccc2C(F)(F)F)c1O	Abutilon theophrasti (ABUTH)	Herbicidal activity ABUTH	50
Cc1nn(C)c(=O)c(-c2c(F)ccc(Cl)c2CCc2ccc(F)cc2)c1O	Abutilon theophrasti (ABUTH)	Herbicidal activity ABUTH	80
Cc1nn(C)c(=O)c(-c2c(F)ccc(Cl)c2CCc2ccc(C#N)cc2)c1O	Abutilon theophrasti (ABUTH)	Herbicidal activity ABUTH	90
Cc1nn(C)c(=O)c(-c2c(F)ccc(Cl)c2CCc2ccc(F)cc2)c1OC(=O)C(C)C	Abutilon theophrasti (ABUTH)	Herbicidal activity ABUTH	90
